Task for the reader: assign each of the following sequences its reported self-splicing fitness (ln).
- assay details: self-splicing fitness, log relative to wild type (ln ratio); higher = more splicing; Tetrahymena group I intron in knt gene, E. coli kanamycin selection, DiMSum; sequences stand for … in CUCUCU…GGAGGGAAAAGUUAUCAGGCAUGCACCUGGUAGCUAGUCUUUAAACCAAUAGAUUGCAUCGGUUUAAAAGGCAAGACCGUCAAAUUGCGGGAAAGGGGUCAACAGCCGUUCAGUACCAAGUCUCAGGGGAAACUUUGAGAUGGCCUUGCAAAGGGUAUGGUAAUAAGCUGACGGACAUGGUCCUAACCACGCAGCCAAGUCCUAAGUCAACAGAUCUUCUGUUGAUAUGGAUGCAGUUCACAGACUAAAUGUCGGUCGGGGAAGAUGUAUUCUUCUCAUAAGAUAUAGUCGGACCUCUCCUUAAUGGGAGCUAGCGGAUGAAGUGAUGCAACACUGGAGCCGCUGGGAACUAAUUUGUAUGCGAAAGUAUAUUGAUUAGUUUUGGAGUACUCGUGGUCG;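 note: selection with 25 µg/mL kanamycin versus none on LB agar overnight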
- particulars: 37 °C
Answers are plain numbers.

As a guide, the following entries are already answered.
[[record]]
residue_codes = "AAUAAGCAAUAUUACGCCGA"
recorded_result = -0.632

[[record]]
residue_codes = "CCCGAGCAAUAUUACGUCUG"
recorded_result = -2.32

[[record]]
residue_codes = "UUUGAGCAAUAUUACGUGGA"
recorded_result = -2.37


Give self-splicing fitness (ln) for each listed item.
1. CCACAGCAAUAUUACGAGGG
2. CCGCAGCAAUAUUACGCGUA
3. CAACAGCAAUAUUACGUGUA
4. GGUUAGCAAUAUUACGGACA

**Result**
-3.11
-0.978
-1.76
0.373

Give self-splicing fitness (ln) for each listed item.
1. UGAUAGCAAUAUUACGACGC
2. CUGGAGCAAUAUUACGCAGU
3. UCACAGCAAUAUUACGCGCA

**Result**
1. -3.55
2. -1.99
3. 0.0608

Give self-splicing fitness (ln) for each listed item.
1. UCGUAGCAAUAUUACGCUUU
2. UUUUAGCAAUAUUACGGCAG
3. CCAGAGCAAUAUUACGUUAU
4. UUUUAGCAAUAUUACGGCGA
5. UAAGAGCAAUAUUACGCGCA
6. UGCCAGCAAUAUUACGGGCG

**Result**
-2.4
-0.727
-2.2
0.114
-1.16
-2.73

Give self-splicing fitness (ln) for each listed item.
1. UAUCAGCAAUAUUACGGGCC
2. CUGUAGCAAUAUUACGGUAU
3. GUACAGCAAUAUUACGUUCC
4. CCAUAGCAAUAUUACGGAAA
5. UAGAAGCAAUAUUACGGUCG
6. UCAUAGCAAUAUUACGACUU
7. UUGAAGCAAUAUUACGUUCU
8. UCGUAGCAAUAUUACGGGUU

**Result**
-2.07
-2.08
-3.48
-2.36
0.153
-2.42
-0.378
-2.38

====

- assay details: self-splicing fitness, log relative to wild type (ln ratio); higher = more splicing; Tetrahymena group I intron in knt gene, E. coli kanamycin selection, DiMSum; sequences stand for … in CUCUCU…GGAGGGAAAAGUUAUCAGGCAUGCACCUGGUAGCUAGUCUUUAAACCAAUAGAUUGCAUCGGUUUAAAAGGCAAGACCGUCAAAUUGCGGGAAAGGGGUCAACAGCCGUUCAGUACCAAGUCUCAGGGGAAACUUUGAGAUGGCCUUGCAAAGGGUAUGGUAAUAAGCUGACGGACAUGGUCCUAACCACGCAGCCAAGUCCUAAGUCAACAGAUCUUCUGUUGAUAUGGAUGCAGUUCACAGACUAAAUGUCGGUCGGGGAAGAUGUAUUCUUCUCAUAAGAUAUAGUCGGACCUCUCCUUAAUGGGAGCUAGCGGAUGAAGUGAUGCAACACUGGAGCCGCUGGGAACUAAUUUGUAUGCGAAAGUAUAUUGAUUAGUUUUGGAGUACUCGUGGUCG
- particulars: 30 °C
Task for the reader: assign each of the following sequences its reported self-splicing fitness (ln).
Numbers only.

Give self-splicing fitness (ln) for each listed item.
1. GGUGAGCAAUAUUACGUAAA
2. GGAAAGCAAUAUUACGUGAU

**Result**
1. -2.79
2. -2.79

====

Task for the reader: assign each of the following sequences its reported self-splicing fitness (ln).
- assay details: self-splicing fitness, log relative to wild type (ln ratio); higher = more splicing; Tetrahymena group I intron in knt gene, E. coli kanamycin selection, DiMSum; sequences stand for … in CUCUCU…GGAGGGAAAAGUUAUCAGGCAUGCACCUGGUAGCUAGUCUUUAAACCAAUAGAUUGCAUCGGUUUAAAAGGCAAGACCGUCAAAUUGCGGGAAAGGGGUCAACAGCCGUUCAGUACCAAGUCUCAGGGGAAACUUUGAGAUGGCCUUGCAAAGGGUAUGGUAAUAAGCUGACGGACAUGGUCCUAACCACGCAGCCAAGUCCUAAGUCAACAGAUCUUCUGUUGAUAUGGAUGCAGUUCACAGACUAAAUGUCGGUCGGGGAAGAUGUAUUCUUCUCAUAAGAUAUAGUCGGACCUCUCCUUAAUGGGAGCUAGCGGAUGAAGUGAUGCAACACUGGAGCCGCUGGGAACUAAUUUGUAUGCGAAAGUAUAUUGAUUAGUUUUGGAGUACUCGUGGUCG
- particulars: 30 °C
Numbers only.

As a guide, the following entries are already answered.
[[record]]
residue_codes = "ACCGAGCAAUAUUACGCUCU"
recorded_result = -0.43

[[record]]
residue_codes = "CUGGAGCAAUAUUACGUCGA"
recorded_result = -3.15

[[record]]
residue_codes = "CCACAGCAAUAUUACGAUUU"
recorded_result = -4.23

[[record]]
residue_codes = "ACGUAGCAAUAUUACGCGUA"
recorded_result = -2.22

[[record]]
residue_codes = "GGUGAGCAAUAUUACGGCGG"
recorded_result = -3.44

[[record]]
residue_codes = "UAAAAGCAAUAUUACGACUC"
recorded_result = -1.22

[[record]]
residue_codes = "GUACAGCAAUAUUACGACGU"
recorded_result = -0.603


Switching to the query record.
Reported self-splicing fitness (ln) of CAUCAGCAAUAUUACGUCUG : -0.675

====

- assay details: self-splicing fitness, log relative to wild type (ln ratio); higher = more splicing; Tetrahymena group I intron in knt gene, E. coli kanamycin selection, DiMSum; sequences stand for … in CUCUCU…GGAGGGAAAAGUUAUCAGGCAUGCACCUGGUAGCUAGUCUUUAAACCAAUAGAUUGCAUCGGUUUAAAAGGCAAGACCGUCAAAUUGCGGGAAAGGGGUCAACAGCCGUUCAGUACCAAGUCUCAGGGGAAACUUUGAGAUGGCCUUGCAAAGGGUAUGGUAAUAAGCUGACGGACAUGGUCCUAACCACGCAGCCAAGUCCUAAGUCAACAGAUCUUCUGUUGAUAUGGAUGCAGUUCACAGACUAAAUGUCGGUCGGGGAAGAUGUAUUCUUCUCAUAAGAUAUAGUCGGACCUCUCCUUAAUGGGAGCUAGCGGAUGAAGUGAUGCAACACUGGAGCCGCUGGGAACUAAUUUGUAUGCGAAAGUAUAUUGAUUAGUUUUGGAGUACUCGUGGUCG
- particulars: 30 °C
Hi all, reminder that labels come from self-splicing fitness (ln), split as L = under -3, M = from -3 up to -1, H = -1 and over

[[record]]
residue_codes = "UCUUAGCAAUAUUACGCGUU"
answer_label = "L"


**Query** State the band of UCUAAGCAAUAUUACGCGGA
**Result** M

**Query** State the band of AACGAGCAAUAUUACGUUAU
**Result** L

**Query** State the band of CAAAAGCAAUAUUACGUUGC
**Result** L

====

- assay details: self-splicing fitness, log relative to wild type (ln ratio); higher = more splicing; Tetrahymena group I intron in knt gene, E. coli kanamycin selection, DiMSum; sequences stand for … in CUCUCU…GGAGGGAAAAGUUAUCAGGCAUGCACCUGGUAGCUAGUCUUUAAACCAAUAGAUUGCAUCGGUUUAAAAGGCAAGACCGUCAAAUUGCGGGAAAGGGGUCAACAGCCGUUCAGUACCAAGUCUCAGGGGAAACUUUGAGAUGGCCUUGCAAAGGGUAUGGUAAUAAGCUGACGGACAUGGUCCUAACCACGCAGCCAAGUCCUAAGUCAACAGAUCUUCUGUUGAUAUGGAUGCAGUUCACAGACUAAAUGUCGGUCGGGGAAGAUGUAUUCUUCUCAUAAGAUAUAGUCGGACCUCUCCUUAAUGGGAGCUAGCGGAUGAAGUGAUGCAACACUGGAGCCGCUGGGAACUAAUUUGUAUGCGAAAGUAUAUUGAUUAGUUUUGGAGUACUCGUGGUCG
- particulars: 37 °C
quantity kind: self-splicing fitness (ln)
Answers are plain numbers.

As a guide, the following entries are already answered.
[[record]]
residue_codes = "CGGCAGCAAUAUUACGAACU"
recorded_result = -0.121

[[record]]
residue_codes = "CGGCAGCAAUAUUACGCUUU"
recorded_result = -1.62


Give self-splicing fitness (ln) for each listed item.
1. GUCAAGCAAUAUUACGUCAU
2. AACCAGCAAUAUUACGUUCG
3. UCUAAGCAAUAUUACGCAUG
4. UACUAGCAAUAUUACGAUCA
5. AAAAAGCAAUAUUACGUCUU
6. GGCUAGCAAUAUUACGGGGA

**Result**
1. -1.16
2. -1.63
3. -2.07
4. -0.774
5. 0.361
6. -1.25
